Here, compounds appear alongside IC50 reported for Caspase-8 (Homo sapiens) in the literature.
Lab note: anything with IC50 below 2 µM is marked Met; values at 2 µM or higher are marked Not met.

Please review the entries below; each comes with its answer.
Cn1c(S)nc2c1c(=O)n(Cc1ccccc1)c(=O)n2C; Not met
O=C1C(=O)N(Cc2ccccc2)c2ccc(S(=O)(=O)N3CCC[C@H]3COc3cccnc3)cc21; Not met
COc1ccc(OC)c(CC(=O)N[C@H](C(=O)N[C@@H](CC(=O)O)C(=O)CSCc2c(F)cccc2Cl)C(C)C)c1; Not met

Incoming: Strictly below 2 µM in IC50? O=C(CN1CC=CC[C@H](NC(=O)c2cc3ccccc3s2)C1=O)N[C@H]1CC(=O)OC1O (some centres not stated)
Outgoing: Met

Incoming: Strictly below 2 µM in IC50? COC[C@@H]1CCCN1S(=O)(=O)c1ccc2c(c1)C(=O)C(=O)N2Cc1ccc(OC)cc1
Outgoing: Not met

Incoming: Strictly below 2 µM in IC50? O=C(CN1CC(CNC(=O)c2ccccc2)=CC[C@H](NC(=O)c2ccc3ccccc3c2)C1=O)N[C@H]1CC(=O)OC1O (some centres not stated)
Outgoing: Met

Incoming: Strictly below 2 µM in IC50? COc1cccc(C(=O)NNC(=O)C2(C(=O)N[C@H]3CC(=O)OC3O)CCCC2)c1 (some centres not stated)
Outgoing: Met

Incoming: Strictly below 2 µM in IC50? O=C1C[C@H](NC(=O)[C@@H]2CN(S(=O)(=O)c3ccccc3)C[C@@H]3CCCC[C@H](NC(=O)c4nccc5ccccc45)C(=O)N32)C(O)O1 (some centres not stated)
Outgoing: Met

Incoming: Strictly below 2 µM in IC50? O=C1C[C@H](NC(=O)[C@@H]2COC[C@@H]3C/C=C\C[C@H](NC(=O)c4ccccc4)C(=O)N32)C(O)O1 (some centres not stated)
Outgoing: Not met
